# EXPERIMENTAL_TARGET: T1, FX activation peptide 12-mer QTQPERGDNNLT (human)
# T1 peptide: QTQPERGDNNLT-biotin
# PROCEDURE_SUMMARY: peptide ELISA
Ends that are not written are not given here.
REPORTED_ENDPOINT: ELISA signal relative to background
Answer field: number only, no words.

// returns reported ELISA signal relative to background for input Nb 721E08 (VHH, monovalent Nanobody; not shown: C-terminal FLAG3 and HIS6 tag) VHH: EVQLVESGGGVVQPGGSLRLSCAASGRTFSTYSMGWFRQAPGKEREFVAAITRRGSRTYYADSVKGRFTISRDNSKNTVYLQMNSLRPEDTALYYCAADRRPADSYLDYWGQGTLVTVSS
1.96

Requested field: ELISA signal relative to background. Item: Nb 729C08 (VHH, monovalent Nanobody; also called Nb 729008; not shown: C-terminal FLAG3 and HIS6 tag) VHH: EVQLVESGGGVVQPGGSLRLSCAASGFTFSDYAMSWVRQAPGKGLEWVSGITGGGRTYYADSVKGRFTISRDNSKNTLYLQMNSLRPEDTALYYCAAAILTRTRRTYDYWGQGTLVTVSS
1.04

// query ELISA signal relative to background value for entry Nb 702C12 (VHH, monovalent Nanobody; not shown: C-terminal FLAG3 and HIS6 tag) VHH: EVQLVESGGGVVQPGGSLRLSCVASGRTFSRYAMGWFRQAPGKEREFVAAISRRGGSTNYADSVKGRFTISRDNSKNTVYLQMNSLRPEDTALYYCAADYSSGDGYLDYWGQGTLVTVSS
0.88

Give its ELISA signal relative to background value. Item: Nb 729A04 (VHH, monovalent Nanobody; not shown: C-terminal FLAG3 and HIS6 tag) VHH: EVQLVESGGGVVQPGGSLRLSCAASGFTFSDYAMSWVRQAPGKGLEWVSGITSGGGRTYYADSVKGRFTISRDNSKNTLYLQMNSLRPEDTALYYCAAVRTLGLRGSYDYWGQGTLVTVSS
1.11
